target: the molecule itself; test: negative-stain electron microscopy of polymers; FtsZ or variant 2 µM with 1 mM GTP in Pol buffer (50 mM HEPES-NaOH pH 8.0, 200 mM KCl, 10 mM MgCl2), room temperature 5 min, 1% uranyl acetate; self-assembly into filaments

>  <protein>
FtsZ (natural protein, E. coli, UniProt P0A9A6 1-383, looked up, FtsZ, E. coli, untagged, from pSEB160; also called FtsZ-WT; WT FtsZ) MFEPMELTNDAVIKVIGVGGGGGNAVEHMVRERIEGVEFFAVNTDAQALRKTAVGQTIQIGSGITKGLGAGANPEVGRNAADEDRDALRAALEGADMVFIAAGMGGGTGTGAAPVVAEVAKDLGILTVAVVTKPFNFEGKKRMAFAEQGITELSKHVDSLITIPNDKLLKVLGRGISLLDAFGAANDVLKGAVQGIAELITRPGLMNVDFADVRTVMSEMGYAMMGSGVASGEDRAEEAAEMAISSPLLEDIDLSGARGVLVNITAGFDLRLDEFETVGNTIRAFASDNATVVIGTSLDPDMNDELRVTVVATGIGMDKRPEITLVTNKQVQQPVMDRYQQHGMAPLTQEQKPVAKVVNDNAPQTAKEPDYLDIPAFLRKQAD

>  <binding result>
binds

$$$$
>  <protein>
6×His-FtsZ360 (domain or fragment, E. coli, UniProt P0A9A6 1-360, looked up, FtsZ, E. coli, truncated by two stop codons after codon 360; lacks the conserved C-terminal tail; source: E. coli JS238 with pSD119-Z360, purified (Ni-NTA); not shown: His6, N-terminal, kept) MFEPMELTNDAVIKVIGVGGGGGNAVEHMVRERIEGVEFFAVNTDAQALRKTAVGQTIQIGSGITKGLGAGANPEVGRNAADEDRDALRAALEGADMVFIAAGMGGGTGTGAAPVVAEVAKDLGILTVAVVTKPFNFEGKKRMAFAEQGITELSKHVDSLITIPNDKLLKVLGRGISLLDAFGAANDVLKGAVQGIAELITRPGLMNVDFADVRTVMSEMGYAMMGSGVASGEDRAEEAAEMAISSPLLEDIDLSGARGVLVNITAGFDLRLDEFETVGNTIRAFASDNATVVIGTSLDPDMNDELRVTVVATGIGMDKRPEITLVTNKQVQQPVMDRYQQHGMAPLTQEQKPVAKVVND

>  <binding result>
binds

$$$$
